- testedOn: hSSTR4 (Homo sapiens)
- Construct: expressed in transfected cells; host or cells: CHO-K1 or CCL39 cells
- procedureDetails: Receptor autoradiography, displacement of 125I-[Leu8,D-Trp22,Tyr25]-SRIF-28 from membrane pellet sections
- Type: binding
- experimentalContext: Table 3; mean ± SEM when N ≧ 3; read-out: sst4 binding affinity (IC50)
Bridge positions count the residues as written; N and C are the ends. Square brackets hold non-standard residues; d marks the D form. Peptide text beside a SMILES is read from it. * marks the point of attachment. DOTA = O=C(O)CN1CCN(CC(=O)O)CCN(CC(=O)*)CCN(CC(=O)O)CC1; Phe(4-NO2) = N[C@@H](Cc1ccc([N+](=O)[O-])cc1)C(=O)O; dPhe(4-NHCONH2) = NC(=O)Nc1ccc(C[C@@H](N)C(=O)O)cc1; Phe(4-NHCONH2) = NC(=O)Nc1ccc(C[C@H](N)C(=O)O)cc1; dTrp(5-F) = N[C@H](Cc1c[nH]c2ccc(F)cc12)C(=O)O; Phe(4-Cl) = N[C@@H](Cc1ccc(Cl)cc1)C(=O)O; 2Nal = N[C@@H](Cc1ccc2ccccc2c1)C(=O)O
Catalogue of IC50 readings, one per entry.
endpoint: IC50 (nM)

{"columns": ["compound", "endpoint", "limitSign", "value"],
 "data": [
  ["C[C@@H](O)[C@@H]1NC(=O)[C@H](CCCCN)NC(=O)[C@@H](Cc2ccc(NC(N)=O)cc2)NC(=O)[C@H](Cc2ccc(O)cc2)NC(=O)[C@H](NC(=O)[C@H](Cc2ccc([N+](=O)[O-])cc2)NC(=O)CN2CCN(CC(=O)O)CCN(CC(=O)O)CCN(CC(=O)O)CC2)CSSC[C@@H](C(=O)N[C@@H](Cc2ccc3ccccc3c2)C(N)=O)NC1=O [Peptide No. 5] ({DOTA}-[Phe(4-NO2)][dC]Y[dPhe(4-NHCONH2)]KTC[2Nal]-NH2; disulfide 2-7)", "IC50", ">", 1000],
  ["C[C@@H](O)[C@@H]1NC(=O)[C@H](CCCCN)NC(=O)[C@@H](Cc2c[nH]c3ccc(F)cc23)NC(=O)[C@H](Cc2ccc(NC(N)=O)cc2)NC(=O)[C@H](NC(=O)[C@@H](N)Cc2ccc(Cl)cc2)CSSC[C@@H](C(=O)N[C@@H](Cc2ccc3ccccc3c2)C(N)=O)NC1=O [compound 25] (H-[Phe(4-Cl)][dC][Phe(4-NHCONH2)][dTrp(5-F)]KTC[2Nal]-NH2; disulfide 2-7)", "IC50", "=", 287],
  ["C[C@@H](O)[C@@H]1NC(=O)[C@H](CCCCN)NC(=O)[C@@H](Cc2c[nH]c3ccccc23)NC(=O)[C@H](Cc2ccc(NC(N)=O)cc2)NC(=O)[C@H](NC(=O)[C@@H](N)Cc2ccc(Cl)cc2)CSSC[C@@H](C(N)=O)NC1=O [compound 17] (H-[Phe(4-Cl)][dC][Phe(4-NHCONH2)][dW]KTC-NH2; disulfide 2-7)", "IC50", ">", 1000],
  ["C[C@@H](O)[C@@H]1NC(=O)[C@H](CCCCN)NC(=O)[C@@H](Cc2c[nH]c3ccccc23)NC(=O)[C@H](Cc2ccc(NC(=O)NO)cc2)NC(=O)[C@H](NC(=O)[C@@H](N)Cc2ccc(Cl)cc2)CSSC[C@@H](C(=O)N[C@@H](Cc2ccc3ccccc3c2)C(N)=O)NC1=O [compound 24]", "IC50", "=", 813]
]}

###

Catalogue of IC50 readings, one per entry.
- testedOn: hSSTR4 (Homo sapiens, UniProt P31391)
- Construct: expressed in transfected cells; host or cells: CHO-K1 or CCL39 cells
- Sequence (P31391 whole entry): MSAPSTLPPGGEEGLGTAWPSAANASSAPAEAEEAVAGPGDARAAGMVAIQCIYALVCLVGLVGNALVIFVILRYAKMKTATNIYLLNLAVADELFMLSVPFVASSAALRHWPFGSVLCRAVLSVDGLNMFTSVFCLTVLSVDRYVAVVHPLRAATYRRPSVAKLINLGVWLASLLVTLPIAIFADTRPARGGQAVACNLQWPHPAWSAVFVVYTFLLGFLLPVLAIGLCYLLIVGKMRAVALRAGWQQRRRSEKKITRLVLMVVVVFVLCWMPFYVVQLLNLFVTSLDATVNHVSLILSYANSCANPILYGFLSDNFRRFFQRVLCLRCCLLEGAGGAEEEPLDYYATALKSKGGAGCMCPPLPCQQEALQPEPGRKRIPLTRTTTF
- procedureDetails: Receptor autoradiography, displacement of 125I-[Leu8,D-Trp22,Tyr25]-SRIF-28 from membrane pellet sections
- Assay type: binding
- experimentalContext: Table 3; mean ± SEM when N ≧ 3; read-out: sst4 binding affinity (IC50)
Bridge positions count the residues as written; N and C are the ends. Square brackets hold non-standard residues; d marks the D form. Peptide text beside a SMILES is read from it. * marks the point of attachment. ξ: configuration not given here. DOTA = O=C(O)CN1CCN(CC(=O)O)CCN(CC(=O)*)CCN(CC(=O)O)CC1; Phe(4-NO2) = N[C@@H](Cc1ccc([N+](=O)[O-])cc1)C(=O)O; dPhe(4-NHCONH2) = NC(=O)Nc1ccc(C[C@@H](N)C(=O)O)cc1; ξDihydroorotoyl = O=C1CC(C(=O)*)NC(=O)N1; Phe(4-NH2) = Nc1ccc(C[C@H](N)C(=O)O)cc1; 2Nal = N[C@@H](Cc1ccc2ccccc2c1)C(=O)O

{"columns": ["molecule", "IC50"],
 "data": [
  ["C[C@@H](O)[C@@H]1NC(=O)[C@H](CCCCN)NC(=O)[C@@H](Cc2c[nH]c3ccccc23)NC(=O)[C@H](Cc2ccc(NC(N)=O)cc2)NC(=O)[C@H](NC(=O)[C@H](Cc2ccc(Cl)cc2)NC(=O)CCNC(=O)CN2CCN(CC(=O)O)CCN(CC(=O)O)CCN(CC(=O)O)CC2)CSSC[C@@H](C(=O)N[C@@H](Cc2ccc3ccccc3c2)C(N)=O)NC1=O [compound 15]", "> 1000 nM"],
  ["C[C@@H](O)[C@@H]1NC(=O)[C@H](CCCCN)NC(=O)[C@@H](Cc2ccc(NC(N)=O)cc2)NC(=O)[C@H](Cc2ccc(O)cc2)NC(=O)[C@H](NC(=O)[C@H](Cc2ccc([N+](=O)[O-])cc2)NC(=O)CN2CCN(CC(=O)O)CCN(CC(=O)O)CCN(CC(=O)O)CC2)CSSC[C@@H](C(=O)N[C@H](Cc2ccc(O)cc2)C(N)=O)NC1=O [Peptide No. 3] ({DOTA}-[Phe(4-NO2)][dC]Y[dPhe(4-NHCONH2)]KTC[dY]-NH2; disulfide 2-7)", "> 1000 nM"],
  ["C[C@@H](O)[C@@H]1NC(=O)[C@H](CCCCN)NC(=O)[C@@H](Cc2ccc(NC(N)=O)cc2)NC(=O)[C@H](Cc2ccc(NC(=O)C3CC(=O)NC(=O)N3)cc2)NC(=O)[C@H](NC(=O)[C@@H](N)Cc2ccc([N+](=O)[O-])cc2)CSSC[C@@H](C(=O)N[C@@H](Cc2ccc3ccccc3c2)C(N)=O)NC1=O (stereo partly drawn) [compound 6] (H-[Phe(4-NO2)][dC][Phe(4-NH2)](ξDihydroorotoyl)[dPhe(4-NHCONH2)]KTC[2Nal]-NH2; disulfide 2-7)", "> 1000 nM"]
]}

###

- testedOn: hSSTR4 (Homo sapiens)
- Construct: expressed in transfected cells; host or cells: CHO-K1 or CCL39 cells
- procedureDetails: Receptor autoradiography, displacement of 125I-[Leu8,D-Trp22,Tyr25]-SRIF-28 from membrane pellet sections
- Format: binding
- experimentalContext: Table 3; mean ± SEM when N ≧ 3; read-out: sst4 binding affinity (IC50)
Bridge positions count the residues as written; N and C are the ends. Square brackets hold non-standard residues; d marks the D form. Peptide text beside a SMILES is read from it. * marks the point of attachment. Phe(4-NHCONH2) = NC(=O)Nc1ccc(C[C@H](N)C(=O)O)cc1; Phe(4-Cl) = N[C@@H](Cc1ccc(Cl)cc1)C(=O)O; X1 = NC(=O)N[C@@H](Cc1ccc(Cl)cc1)C(=O)*; 2Nal = N[C@@H](Cc1ccc2ccccc2c1)C(=O)O; NMeK = CN[C@@H](CCCCN)C(=O)O
endpoint: IC50 (nM)

{"columns": ["molecule", "value"],
 "data": [
  ["C[C@@H](O)[C@@H]1NC(=O)[C@H](CCCCN)N(C)C(=O)[C@@H](Cc2c[nH]c3ccccc23)NC(=O)[C@H](Cc2ccc(O)cc2)NC(=O)[C@H](NC(=O)[C@@H](N)Cc2ccc(Cl)cc2)CSSC[C@@H](C(=O)N[C@@H](Cc2ccc3ccccc3c2)C(N)=O)NC1=O [compound 8, reference compound] (H-[Phe(4-Cl)][dC]Y[dW][NMeK]TC[2Nal]-NH2; disulfide 2-7)", 715],
  ["C[C@@H](O)[C@@H]1NC(=O)[C@H](CCCCN)NC(=O)[C@@H](Cc2c[nH]c3ccccc23)NC(=O)[C@H](Cc2ccc(NC(N)=O)cc2)NC(=O)[C@H](NC(=O)[C@H](Cc2ccc(Cl)cc2)NC(N)=O)CSSC[C@@H](C(=O)N[C@@H](Cc2ccc3ccccc3c2)C(N)=O)NC1=O [compound 13] (X1-[dC][Phe(4-NHCONH2)][dW]KTC[2Nal]-NH2; disulfide 1-6)", 136],
  ["C[C@@H](O)[C@@H]1NC(=O)[C@H](CCCCN)NC(=O)[C@@H](Cc2c[nH]c3ccccc23)NC(=O)[C@H](Cc2ccc(NC(N)=O)cc2)NC(=O)[C@H](NC(=O)[C@@H](N)Cc2ccc(Cl)cc2)CSSC[C@@H](C(=O)N[C@H](Cc2ccc(NC(N)=O)cc2)C(N)=O)NC1=O", 800]
]}
